# Test system: PPARg:RXRa (NR concentration 180 nM, RXRa partner concentration 90 nM)
# Test name: PBM binding z-score (relative to random genomic background probes); higher = stronger binding; sequences stand for … in GC…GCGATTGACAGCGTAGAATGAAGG
Label rule met when PBM binding z-score is at or above 7; anything below gets rule not met.

TCTTGTAGATCATCAGGTTAAGAAAGCTGGCCAA :: rule not met

Exercise: Reported PBM binding z-score at or above 7? `AAGACAGGGTCACTAGGCCAGAGTAGGTACGAAT`
Key: rule met

Exercise: For this sequence, is measured PBM binding z-score 7 or higher? `GCGACTGGGGCATCAGCATGTTACCATAACTTAA`
Key: rule not met

Exercise: Can `ACTCGGAGGACAAAGGTCAGAGCAACGCCAGTGA` be said to have PBM binding z-score at or above 7?
Key: rule met

Exercise: Say whether `CCTTCCGGGTCACTGACAGGTTATAGCATTTGGA` shows PBM binding z-score of 7 or more.
Key: rule not met

====

# Tested on: VDR:RXRa (NR concentration 270 nM, RXRa partner concentration 90 nM)
# Test name: PBM binding z-score (relative to random genomic background probes); higher = stronger binding; sequences stand for … in GC…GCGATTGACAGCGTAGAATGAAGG
Property label: PBM binding z-score
Please state the value as a number alone, without comment.

Below, 3 sequences whose answers are already recorded.
GCTAGTTGGTCAGCAAAAGGTCACACACCGGTCG :: 4.13
AGGCAAAGTTCATCTAGGTAACGTAAGATATGCT :: 4.86
CCTACTGGTCCACGAAAGGTCATTGATTCAGTGA :: 4.24

Exercise: Fill: PBM binding z-score (VDR:RXRa (NR concentration 270 nM, RXRa partner concentration 90 nM)) for this sequence `CGAACTAGGTCATCCAGGACAGTGTATACATTGA`
Key: 4.57

Exercise: Write PBM binding z-score of `CTCGAAAGGTCGGTTAAGGTGAGTATACGGATAA` ; system used: VDR:RXRa (NR concentration 270 nM, RXRa partner concentration 90 nM)
Key: 2.03

Exercise: Report the value of PBM binding z-score obtained on VDR:RXRa (NR concentration 270 nM, RXRa partner concentration 90 nM) for `GCTTGTAGATCAGGGTTAAGAAAGACTAAGCTAA` .
Key: 0.179

Exercise: Provide PBM binding z-score, recorded with VDR:RXRa (NR concentration 270 nM, RXRa partner concentration 90 nM), of `AGTCAAAGTTCCCTAGGTAACGTAAGATTCAGCT`
Key: -0.251

Exercise: Tell me PBM binding z-score of `ATCTCTAGGTAACCAAGTTCAGTGAATGCCGAAC` when tested on VDR:RXRa (NR concentration 270 nM, RXRa partner concentration 90 nM).
Key: 4.23

Exercise: System VDR:RXRa (NR concentration 270 nM, RXRa partner concentration 90 nM). Read-out PBM binding z-score. Item `AGAACGAGGGCAATGAGTTGATAGTACGGGTGGC` . Report value.
Key: 5.53

Exercise: Param request: PBM binding z-score | system VDR:RXRa (NR concentration 270 nM, RXRa partner concentration 90 nM) | item `TCTTGCAGATCAAGCAGGTTAAGAAAGCCTGAGT`
Key: 0.157

Exercise: Give PBM binding z-score for this entry on VDR:RXRa (NR concentration 270 nM, RXRa partner concentration 90 nM): `CCTTGTTGGTCAAGGTCACACACGCTATAGGTAC`
Key: 3.83

Exercise: Would you please give the reported PBM binding z-score of `TCTCGGAGGACACGAAGGTAAGAGCTTTCCAGAG` with VDR:RXRa (NR concentration 270 nM, RXRa partner concentration 90 nM)?
Key: -0.386

Exercise: Look up and report PBM binding z-score, with VDR:RXRa (NR concentration 270 nM, RXRa partner concentration 90 nM) as system, for `TCTTGTAGATCAAGCAGGTGAAGAAAGCCTGAGT`
Key: 0.0815

Exercise: Please respond with reported PBM binding z-score (system VDR:RXRa (NR concentration 270 nM, RXRa partner concentration 90 nM)) for `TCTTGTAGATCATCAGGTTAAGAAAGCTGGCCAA` .
Key: 0.814

Exercise: Param request: PBM binding z-score | system VDR:RXRa (NR concentration 270 nM, RXRa partner concentration 90 nM) | item `GTAACGAGGGCATTCGAGTTGATAGCATGGCGAT`
Key: 3.62
